# measurement.target: CDK2/Cyclin A (Homo sapiens, UniProt P24941)
# test.description: Inhibition of CDK2/Cyclin A Retinoblastoma Kinase Activity
# Type: biochemical
# details: at 0.03 μM
# Method: Cyclin-dependent kinase activity was measured by quantifying the enzyme-catalyzed, time-dependent incorporation of radioactive phosphate from [^32P]ATP or [^33P]ATP into a protein substrate. […] The phosphorylated substrate was then captured on a nitrocellulose or phosphocellulose membrane using a 96-well filtration manifold, and unincorporated radioactivity was removed by repeated washing with 0.85% phosphoric acid. Radioactivity was quantified by exposing the dried membranes to a phosphorimager. […]
measured.parameter: CDK2 % Inhibition at 0.03 μM (%)

Here is how some compounds turned out for CDK2 % Inhibition at 0.03 μM.
- compound: "Nc1nc(NC2CCN(C(=O)CCC3CCCCC3)CC2)sc1C(=O)c1c(F)cccc1F"
  CDK2 % Inhibition at 0.03 μM, %: 15
- compound: "Nc1nc(NC2CCN(C(=O)c3ccc(C(F)(F)F)cc3C(F)(F)F)CC2)sc1C(=O)c1c(F)cccc1F"
  CDK2 % Inhibition at 0.03 μM, %: 0
- compound: "Cc1ccc(S(=O)(=O)CC(=O)N2CCC(Nc3nc(N)c(C(=O)c4c(F)cccc4F)s3)CC2)cc1"
  CDK2 % Inhibition at 0.03 μM, %: 9
- compound: "Nc1nc(NC2CCN(C(=O)c3ccc(F)cc3C(F)(F)F)CC2)sc1C(=O)c1c(F)cccc1F"
  CDK2 % Inhibition at 0.03 μM, %: 21
- compound: "CCC(C)CC(=O)N1CCC(Nc2nc(N)c(C(=O)c3c(F)cccc3F)s2)CC1 (centres unmarked)"
  CDK2 % Inhibition at 0.03 μM, %: 23

1. Cc1cc(C)cc(C(=O)N2CCC(Nc3nc(N)c(C(=O)c4c(F)cccc4F)s3)CC2)c1
2. CC1(C(=O)N2CCC(Nc3nc(N)c(C(=O)c4c(F)cccc4F)s3)CC2)CCCCC1
3. Nc1nc(NC2CCN(C(=O)[C@@H]3C[C@H]3c3ccccc3)CC2)sc1C(=O)c1c(F)cccc1F (relative stereo)
4. CCC(C(=O)N1CCC(Nc2nc(N)c(C(=O)c3c(F)cccc3F)s2)CC1)c1ccccc1 (centres unmarked) [Example R163]
In: Form: Sort by [CDK2 % Inhibition at 0.03 μM] Order [ ascending ] Answer by listing the labels in the requested order.
Out: 3, 2, 4, 1

I. Nc1nc(NC2CCN(C(=O)c3cc4ccccc4s3)CC2)sc1C(=O)c1c(F)cccc1F
II. Nc1nc(NC2CCN(C(=O)c3ccc(Oc4cc(Cl)cc(Cl)c4)o3)CC2)sc1C(=O)c1c(F)cccc1F
III. COc1cccc(C(=O)N2CCC(Nc3nc(N)c(C(=O)c4c(F)cccc4F)s3)CC2)c1OC
IV. Nc1nc(NC2CCN(C(=O)OC3CCCC3)CC2)sc1C(=O)c1c(F)cccc1F
In: hey, can you rank those compounds up there by CDK2 % Inhibition at 0.03 μM? biggest number first please Rank the items, then write their labels in that order.
Out: I, III, II, IV

P. Nc1nc(NC2CCN(C(=O)CCOc3ccccc3)CC2)sc1C(=O)c1c(F)cccc1F
Q. Cc1cc(C(=O)N2CCC(Nc3nc(N)c(C(=O)c4c(F)cccc4F)s3)CC2)n(C(C)(C)C)n1
In: Lab notebook, comparison: P versus Q , higher CDK2 % Inhibition at 0.03 μM goes to which? Use the label to indicate which entry you chose.
Out: P
(P: 23%, Q: 16%)

1. Nc1nc(NC2CCN(C(=O)c3cccnc3Sc3ccccc3)CC2)sc1C(=O)c1c(F)cccc1F
2. CN(C)c1ccc(C(=O)N2CCC(Nc3nc(N)c(C(=O)c4c(F)cccc4F)s3)CC2)cc1
In: Between 1 and 2 , which one has the lower reported CDK2 % Inhibition at 0.03 μM value? State the label of the item chosen.
Out: 2
(2: 14%, 1: 24%)

A. CN(C)c1cccc(C(=O)N2CCC(Nc3nc(N)c(C(=O)c4c(F)cccc4F)s3)CC2)c1
B. Nc1nc(NC2CCN(C(=O)c3cccnc3Oc3ccc(Cl)cc3)CC2)sc1C(=O)c1c(F)cccc1F
C. Nc1nc(NC2CCN(C(=O)CC3CCCCC3)CC2)sc1C(=O)c1c(F)cccc1F
D. Nc1nc(NC2CCN(C(=O)c3ccc(Cl)nc3)CC2)sc1C(=O)c1c(F)cccc1F
In: Rank ascending by CDK2 % Inhibition at 0.03 μM. To answer, write out the labels according to the requested order.
Out: C, B, A, D
(C: −5%, B: 16%, A: 27%, D: 59%)

1. Cc1cc(C)c(C(=O)N2CCC(Nc3nc(N)c(C(=O)c4c(F)cccc4F)s3)CC2)c(C)c1
2. Nc1nc(NC2CCN(C(=O)c3ccccc3C(F)(F)F)CC2)sc1C(=O)c1c(F)cccc1F
In: Of 1 and 2 , whose reported CDK2 % Inhibition at 0.03 μM is the larger number? Please identify the chosen entry by its label.
Out: 1

FYI, the data here is from patent US20050101595A1.
